Answer each item with its documented half-life.
- Assay notes: Half life in Sprague-Dawley rat at 1 mg/kg, iv or 2 mg/kg, po
- Assay type: ADME, organism-based
- Protocol conditions: in vivo
Lab book: enter the figure in min, no units written.

Prompt: Data request, read-out half-life, for Cc1cn(-c2ccc(-c3cn(CC(=O)Nc4cccc(Cl)c4Cl)nn3)cc2F)cn1
Completion: 36

Prompt: Data request, read-out half-life, for Cc1nccn1-c1ccc(-c2cn(CC(=O)Nc3cccc(Cl)c3Cl)nn2)cc1
Completion: 54

Prompt: Data request, read-out half-life, for Cc1nccn1-c1ccc(-c2cn(CC(=O)Nc3cccc(Cl)c3Cl)nn2)cn1
Completion: 54
